Please provide measured pIC50 for the entries that follow.
Test system: human FP receptor (Homo sapiens (Human), UniProt P43088)
Sequence (P43088 whole entry): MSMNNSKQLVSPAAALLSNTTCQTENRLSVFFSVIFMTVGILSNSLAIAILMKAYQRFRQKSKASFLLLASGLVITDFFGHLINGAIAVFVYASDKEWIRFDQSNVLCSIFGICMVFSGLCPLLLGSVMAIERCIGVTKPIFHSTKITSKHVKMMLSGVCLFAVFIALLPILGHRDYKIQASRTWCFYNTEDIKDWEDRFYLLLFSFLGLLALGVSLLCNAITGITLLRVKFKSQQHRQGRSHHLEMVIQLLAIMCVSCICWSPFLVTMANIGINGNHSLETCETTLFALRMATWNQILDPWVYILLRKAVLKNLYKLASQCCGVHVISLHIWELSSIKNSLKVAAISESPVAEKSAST
Assay procedure: In vitro test of inhibition of human FP receptor activity (PGF2α-induced calcium flux in FP-expressing CHEM1 cells)
Run conditions: PGF2α-induced (3 nM) calcium flux, some as mean values from multiple independent determinations
Hey, just a heads up that pIC50 is the negative log base 10 of the concentration in molar.

// fetch pIC50 given entry Cc1c(-c2ccccc2)nc2ccc(OC(F)(F)F)cc2c1C(=O)NC12CCC(C(=O)O)(CC1)CC2 6.04

// fetch pIC50 given entry CCCc1c(-c2ccccc2)nc2ccc(Br)cc2c1C(=O)NC12CCC(C(=O)O)(CC1)CC2 6.45

// fetch pIC50 given entry O=C(NC12CCC(C(=O)O)(CC1)CC2)c1c(O)c(-c2ccccc2)nc2ccc(Br)cc12 6.37

// fetch pIC50 given entry Cc1c(-c2ccccc2)nc2ccc(I)cc2c1C(=O)NC12CCC(C(=O)O)(CC1)CC2 7.48

// fetch pIC50 given entry Cc1c(-c2ccccc2)nc2ccc(Br)cc2c1C(=O)NC12CCC(C(=O)O)(CC1)C(O)C2 (racemic) 6.36

// fetch pIC50 given entry Cc1c(-c2ccccc2)nc2ccc(I)cc2c1C(=O)NC12CCC(C(=O)O)(CC1)OC2 6.12

// fetch pIC50 given entry Cc1c(-c2ccccc2F)nc2ccc(Br)cc2c1C(=O)NC12CCC(C(=O)O)(CC1)CC2 6.62

// fetch pIC50 given entry CSc1c(-c2ccccc2)nc2ccc(Br)cc2c1C(=O)NC12CCC(C(=O)O)(CC1)CC2 7.13
